- Tested on: HCV replicon (HCV 1b-377-neo replicon cells, Huh7)
- Assay procedure: HCV replicon cell-based FRET assay
- Reported conditions: Hepatitis C virus, Huh-7
I'd be grateful if you could share measured EC50 for these entries.

Task: If you can, please state the reported EC50 value of COC(=O)N[C@H]1CCCCC/C=C\[C@@H]2C[C@@]2(C(=O)NS(=O)(=O)C2CC2)NC(=O)[C@@H]2C[C@@H](Oc3nccc4ccccc34)CN2C1=O [Compound 12] .
Output: < 50 nM

Task: Subsequent entry: CC(C)(C)OC(=O)N[C@H]1CCCCC/C=C\[C@@H]2C[C@@]2(C(=O)NS(=O)(=O)C2(C)CC2)NC(=O)[C@@H]2C[C@@H](Oc3nccc4ccccc34)CN2C1=O [Compound 8]
Output: < 50 nM

Task: Subsequent entry: COc1ccc2c(OC3CC4C(=O)NC5(C(=O)NS(=O)(=O)C6CC6)CC5C=CCCCCCC(NC(=O)OC(C)(C)C)C(=O)N4C3)nccc2c1OC (centres unmarked) [Compound 134]
Output: < 50 nM

Task: Subsequent entry: COc1ccc2c(O[C@@H]3C[C@H]4C(=O)N[C@]5(C(=O)NS(=O)(=O)C6CC6)C[C@H]5/C=C\COCC[C@H](NC(=O)OC(C)(C)C)C(=O)N4C3)nccc2c1 [Compound 141]
Output: 500 to 5000 nM

Task: Subsequent entry: CS(=O)(=O)NC1CCCCCC=CC2CC2(C(=O)NS(=O)(=O)C2CC2)NC(=O)C2CC(Oc3nccc4ccccc34)CN2C1=O (centres unmarked) [Compound 25]
Output: 500 to 5000 nM

Task: Subsequent entry: COc1ccc2c(OC3CC4C(=O)NC5(C(=O)NS(=O)(=O)C6CC6)CC5C=CCCCCCC(NC(=O)NC(C)(C)C)C(=O)N4C3)nccc2c1 (centres unmarked) [Compound 135]
Output: < 50 nM

Task: Subsequent entry: CC(C)(C)NC(=O)N1CCC/C=C\[C@@H]2C[C@@]2(C(=O)NS(=O)(=O)C2CC2)NC(=O)[C@@H]2C[C@@H](Oc3nccc4ccccc34)CN2C(=O)[C@@H](NC(=O)OC(C)(C)C)C1 [Compound 150]
Output: 50 to 500 nM

Task: Subsequent entry: CC(C)(C)OC(=O)N[C@H]1CCCCC/C=C\[C@@H]2C[C@@]2(C(=O)O)NC(=O)[C@@H]2C[C@@H](Oc3nccc4ccccc34)CN2C1=O [Compound 1]
Output: 500 to 5000 nM

Task: Subsequent entry: COc1ccc2c(OC3CC4C(=O)NC5(C(=O)NS(=O)(=O)C6(C)CC6)CC5C=CCCCSCC(NC(=O)OC(C)(C)C)C(=O)N4C3)nccc2c1 (centres unmarked) [Compound 115]
Output: < 50 nM

Task: Subsequent entry: CNc1ccc(-c2cc3cc(OC)ccc3c(OC3CC4C(=O)NC5(C(=O)NS(=O)(=O)C6CC6)CC5C=CCOCCCC(NC(=O)OC(C)(C)C)C(=O)N4C3)n2)cc1 (centres unmarked) [Compound 113]
Output: < 50 nM

Task: Subsequent entry: CC(=O)N1CCC/C=C\[C@@H]2C[C@@]2(C(=O)NS(=O)(=O)C2CC2)NC(=O)[C@@H]2C[C@@H](Oc3nccc4ccccc34)CN2C(=O)[C@@H](NC(=O)OC(C)(C)C)C1 [Compound 146]
Output: 500 to 5000 nM
